# TESTED_SYSTEM: Furin (Homo sapiens) (UniProt P09958)
# Sequence (P09958 108-714 limits assumed): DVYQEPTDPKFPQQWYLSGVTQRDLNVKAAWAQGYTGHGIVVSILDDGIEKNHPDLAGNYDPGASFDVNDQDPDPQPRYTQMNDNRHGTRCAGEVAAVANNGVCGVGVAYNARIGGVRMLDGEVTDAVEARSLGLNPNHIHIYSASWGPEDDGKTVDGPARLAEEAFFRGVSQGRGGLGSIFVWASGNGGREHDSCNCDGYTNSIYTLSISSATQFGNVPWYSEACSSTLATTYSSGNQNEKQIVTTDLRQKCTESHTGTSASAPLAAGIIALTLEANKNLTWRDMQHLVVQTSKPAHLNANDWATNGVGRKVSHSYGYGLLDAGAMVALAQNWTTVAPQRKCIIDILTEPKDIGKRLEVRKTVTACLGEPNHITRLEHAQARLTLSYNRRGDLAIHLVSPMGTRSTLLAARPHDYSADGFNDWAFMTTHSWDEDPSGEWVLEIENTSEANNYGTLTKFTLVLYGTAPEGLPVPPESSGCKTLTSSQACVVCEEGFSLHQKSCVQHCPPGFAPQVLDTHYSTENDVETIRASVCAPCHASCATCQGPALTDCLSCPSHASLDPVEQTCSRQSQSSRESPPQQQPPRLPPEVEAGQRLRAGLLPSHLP
# TEST: human furin inhibitors, primary screen, biochemical, fluorescence intensity (AID 463115)
# CONDITION_CONTEXT: purified furin, fluorogenic substrate cleavage, stronger effect = higher value; at 30 µM unless noted
The whole screen tested about 220,000 compounds, of which about 130 (0.059%) were called active. The entries come from a sample that favours actives as a whole.
REPORTED_METRIC: inhibition

COMPOUND | inhibition
CC(C)Oc1ccccc1C(=O)NC(CO)C(=O)O (stereo unspecified) | -21.8% (inactive)
COC(=O)/C=C/C(=O)NCc1ccco1 | -23.2% [at 20 µM] (inactive)
CSc1ccc(C(=O)C2CCCN(C(=O)c3ccc(C)nc3)C2)cc1 (stereo unspecified) | -11.4% (inactive)
C=CCn1c(Cn2nnc3ccccc32)nnc1SCC(=O)N/N=C/c1cc(Br)cc(OC)c1O | 1.52% [at 20 µM] (inactive)
CC1=CC=CN2C1=NC(=O)CC2(C)C(=O)N(CC(=O)NC1CCCC1)c1ccccc1C (stereo unspecified) | -22.6% (inactive)
C=Cn1c(C(=O)O)ccc1-c1ccc(OC)cc1 | -9.46% (inactive)

For the compound `Clc1ccc(C[n+]2cc(-c3ccccc3)n3c2CCC3)cc1` , what inhibition is on record?
-20.2% (inactive)

For the compound `CC(C)(C)C(=O)OCc1nc(-c2ccc(O)c(O)c2)cs1` , what inhibition is on record?
-19.6% (inactive)

For the compound `O=C(C1=C[C@H](c2coc3ccccc3c2=O)C[C@H](OCc2ccc(CO)cc2)O1)N1CCN(Cc2ccccc2)CC1` , what inhibition is on record?
-22.1% (inactive)

For the compound O=S(=O)(NCC1CCCO1)c1cnc(Cl)c(Cl)c1 (stereo unspecified) , what inhibition is on record?
-12.9% (inactive)

For the compound `Fc1ccc(COc2cccc(-c3n[nH]c(=S)o3)c2)cc1` , what inhibition is on record?
-11.9% (inactive)

* * *

# TESTED_SYSTEM: Furin (Homo sapiens) (UniProt P09958)
# TEST: human furin inhibitors, primary screen, biochemical, fluorescence intensity (AID 463115)
# CONDITION_CONTEXT: purified furin, fluorogenic substrate cleavage, stronger effect = higher value; at 30 µM unless noted
Screen size: about 220,000 compounds; about 130 (0.059%) were called active. The list comes from a sample in which actives are over-represented; it also holds close analogues and randomly drawn compounds.
REPORTED_METRIC: inhibition

Worked examples, 3 compounds total:
SMILES_DATA | REPORTED_MEASUREMENT
CC(=O)c1sc(NC(=O)c2cccc3ccccc23)nc1C | -10.7% [at 20 µM] (inactive)
S=c1[nH]nc(NCCc2ccccc2)s1 | -19.4% (inactive)
CCC(CC)c1nnc(NC(=O)c2nn(C)c(=O)c3ccccc23)s1 | -10.6% (inactive)

For the compound `COC(=O)c1sc(NC(=S)NC(=O)c2ccc(C)cc2)nc1C` , what inhibition is on record?
-11.8% (inactive)

For the compound `Cn1c(SCC(=O)c2ccc(F)cc2)nnc1-c1ccccn1` , what inhibition is on record?
-22.4% (inactive)

For the compound `Cc1ccc2nc(COc3ccc(N(C)S(=O)(=O)c4ccccc4)cc3)cc(=O)n2c1` , what inhibition is on record?
-21.2% (inactive)

For the compound `O=C(NCc1cccnc1)Nc1cccc(NC(=O)NCc2cccnc2)c1F` , what inhibition is on record?
-13.7% (inactive)
